// values below are reported IC50
biological target: BCR-KIT BaF3 cells (Homo sapiens); construct: fused on or other part: P11274 (Breakpoint cluster region protein); assay: BaF3 BCR-KIT cell proliferation assay (ATPlite); conditions: read-out: Inhibition of Cell Proliferation IC50, BCR/BaF3 Kit
Sequence (P10721 589-937): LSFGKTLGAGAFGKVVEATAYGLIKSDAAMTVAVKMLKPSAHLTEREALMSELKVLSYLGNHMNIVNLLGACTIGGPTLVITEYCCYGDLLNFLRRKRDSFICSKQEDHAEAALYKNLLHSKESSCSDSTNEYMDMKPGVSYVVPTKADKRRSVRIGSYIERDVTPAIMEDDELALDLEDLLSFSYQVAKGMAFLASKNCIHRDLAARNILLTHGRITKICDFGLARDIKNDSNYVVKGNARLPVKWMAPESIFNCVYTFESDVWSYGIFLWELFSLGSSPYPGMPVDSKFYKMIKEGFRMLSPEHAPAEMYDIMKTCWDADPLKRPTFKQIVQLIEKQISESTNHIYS

Example entries begin here.
INSERT INTO results (compound, study_target, measure_name, endpoint_value) VALUES
  ('CNc1ncnc2[nH]cc(C(=O)c3ccc(NC4CCC(F)(F)CC4)nc3F)c12', 'BCR-KIT BaF3 cells (Homo sapiens)', 'IC50', '< 0.1 µM'),
  ('CNc1ncnc2[nH]cc(C(=O)c3cnc(NC4CCC(F)(F)CC4)c(F)c3)c12', 'BCR-KIT BaF3 cells (Homo sapiens)', 'IC50', '< 1 µM'),
  ('CNc1ncnc2[nH]cc(C(=O)c3ccc(Nc4ccc(OC)nc4)nc3F)c12', 'BCR-KIT BaF3 cells (Homo sapiens)', 'IC50', '< 0.1 µM'),
  ('Cc1cnc2[nH]cc(Cc3cnc(Nc4cc(-c5ccc(F)cc5)n[nH]4)nc3)c2c1', 'BCR-KIT BaF3 cells (Homo sapiens)', 'IC50', '< 0.1 µM'),
  ('CCc1ccc(Nc2ccc(C(=O)c3c[nH]c4ncnc(NCC(F)(F)F)c34)c(F)n2)cn1', 'BCR-KIT BaF3 cells (Homo sapiens)', 'IC50', '< 1 µM');

Which IC50 is reported with BCR-KIT BaF3 cells (Homo sapiens) for this entry: "CC(C)Nc1ncnc2[nH]cc(C(=O)c3ccc(NC4CCCCC4)nc3Cl)c12" ?
< 1 µM

And the next one, "CCc1ccc(Nc2ccc(Cc3c[nH]c4ncc(C)cc34)c(F)n2)cn1" ?
< 0.1 µM

And the next one, CC1CCC(Nc2ncc(Cc3c[nH]c4ncc(Cl)cc34)cn2)CC1 (centres unmarked) ?
> 1 µM

And the next one, "COc1ccc(Nc2ccc(C(=O)c3c[nH]c4ncnc(NC5CCC(F)(F)CC5)c34)c(F)n2)cn1" ?
> 1 µM

And the next one, "CNc1ncnc2[nH]cc(C(=O)c3ccc(NC4CCCCC4)nc3F)c12" ?
< 1 µM

----------
// values below are reported IC50
target: BCR-KIT BaF3 cells (Homo sapiens); construct: fused on or other part: P11274 (Breakpoint cluster region protein); test: BaF3 BCR-KIT cell proliferation assay (ATPlite); details: read-out: Inhibition of Cell Proliferation IC50, BCR/BaF3 Kit

INSERT INTO measurements (compound, endpoint_value) VALUES
  ('CCc1ccc(Nc2ccc(C(=O)c3c[nH]c4ncnc(NC5CCCC5)c34)c(F)n2)cn1 [Compound P-4099]', '< 100 nM'),
  ('COc1ncnc2[nH]cc(Cc3ccc(Nc4ccc(C5CC5)nc4)nc3F)c12 [Compound P-4004]', '< 100 nM'),
  ('CCOc1ncnc2[nH]cc(Cc3ccc(Nc4ccc(Br)nc4)nc3F)c12 [Compound P-4020]', '< 1000 nM');

Let us examine a further case.
Endpoint output: IC50 of Cc1cncc(Nc2ccc(Cc3c[nH]c4ncnc(C5CC5)c34)c(F)n2)c1 [Compound P-4038] . Value?
< 1000 nM

----------
molecular target: CYP1A2 (Homo sapiens, UniProt P05177)
Sequence (P05177 whole entry): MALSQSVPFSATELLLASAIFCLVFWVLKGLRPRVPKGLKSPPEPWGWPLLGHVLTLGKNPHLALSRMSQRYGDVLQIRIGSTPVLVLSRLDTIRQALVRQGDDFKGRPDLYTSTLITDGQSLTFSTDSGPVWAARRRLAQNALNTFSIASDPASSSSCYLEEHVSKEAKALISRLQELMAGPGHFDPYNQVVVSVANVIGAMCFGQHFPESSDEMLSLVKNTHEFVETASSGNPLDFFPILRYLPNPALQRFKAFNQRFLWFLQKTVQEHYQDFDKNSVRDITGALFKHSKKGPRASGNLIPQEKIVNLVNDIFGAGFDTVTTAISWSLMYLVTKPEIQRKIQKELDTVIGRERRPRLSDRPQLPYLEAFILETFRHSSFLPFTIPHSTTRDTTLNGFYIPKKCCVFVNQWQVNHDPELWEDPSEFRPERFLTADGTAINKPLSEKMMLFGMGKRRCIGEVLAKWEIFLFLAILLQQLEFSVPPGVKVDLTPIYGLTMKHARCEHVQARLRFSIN
pIC50: −log10 of the molar value.
Measure name: pIC50

INSERT INTO measurements (compound, measure_name, endpoint_value) VALUES
  ('COCCOc1ncnc2[nH]cc(Cc3ccc(Nc4ccc(OC)nc4)nc3F)c12', 'pIC50', '< 5.00');

Endpoint output: pIC50 of COc1ccc(Nc2ccc(C(=O)c3c[nH]c4ncnc(NCC5CCCO5)c34)c(F)n2)cn1 (centres unmarked) . Value?
< 5.00

And the next one, "COc1ccc(Nc2ccc(C(=O)c3c[nH]c4ncnc(NC5CC5)c34)c(F)n2)cn1" ?
> 5.30

And the next one, "CCc1ccc(Nc2ccc(C(=O)c3c[nH]c4ncnc(NCCCOC)c34)c(F)n2)cn1" ?
> 5.30

And the next one, "COc1cncc(Nc2ccc(C(=O)c3c[nH]c4ncnc(NC5CCCCC5)c34)c(F)n2)c1" ?
< 5.00

And the next one, "Cc1ccc(Nc2ccc(Cc3c[nH]c4ncnc(C5CC5)c34)c(F)n2)cn1" ?
< 5.00

And the next one, "CCc1ccc(Nc2ccc(C(=O)c3c[nH]c4ncc(C)cc34)c(F)n2)cn1" ?
< 5.00

And the next one, "Fc1ccc(Nc2ncc(Cc3c[nH]c4ncc(Cl)cc34)cn2)cc1" ?
< 5.00

----------
// values below are reported pIC50
biological target: BCR-NTRK3 BaF3 cells (Homo sapiens, UniProt Q16288); construct: fused on or other part: P11274 (Breakpoint cluster region protein); assay: BaF3 BCR-NTRK3 cell proliferation assay (ATPlite); conditions: read-out: Inhibition of Cell Proliferation IC50, BCR/BaF3 TrkC
Sequence (Q16288 whole entry, the tested form may be a part): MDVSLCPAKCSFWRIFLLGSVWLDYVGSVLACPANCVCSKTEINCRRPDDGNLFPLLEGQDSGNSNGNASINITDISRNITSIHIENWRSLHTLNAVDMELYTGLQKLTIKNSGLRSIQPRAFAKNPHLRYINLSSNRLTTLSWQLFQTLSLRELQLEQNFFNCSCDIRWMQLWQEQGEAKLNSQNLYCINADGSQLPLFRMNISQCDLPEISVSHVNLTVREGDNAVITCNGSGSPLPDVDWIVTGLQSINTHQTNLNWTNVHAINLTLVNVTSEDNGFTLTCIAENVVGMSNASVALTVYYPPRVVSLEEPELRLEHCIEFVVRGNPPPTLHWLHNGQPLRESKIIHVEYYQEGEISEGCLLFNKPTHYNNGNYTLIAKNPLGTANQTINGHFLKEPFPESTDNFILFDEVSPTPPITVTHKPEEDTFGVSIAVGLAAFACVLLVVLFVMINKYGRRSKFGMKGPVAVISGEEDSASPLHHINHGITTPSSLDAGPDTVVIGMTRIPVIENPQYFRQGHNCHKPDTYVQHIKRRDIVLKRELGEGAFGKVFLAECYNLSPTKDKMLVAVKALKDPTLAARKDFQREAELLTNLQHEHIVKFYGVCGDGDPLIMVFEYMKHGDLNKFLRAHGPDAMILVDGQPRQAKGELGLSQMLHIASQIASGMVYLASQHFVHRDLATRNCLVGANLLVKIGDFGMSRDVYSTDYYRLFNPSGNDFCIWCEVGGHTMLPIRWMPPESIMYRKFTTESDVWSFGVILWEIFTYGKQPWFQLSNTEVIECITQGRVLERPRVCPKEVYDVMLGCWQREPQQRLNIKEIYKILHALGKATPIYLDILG
pIC50: −log10 of the molar value.

INSERT INTO measurements (smiles_data, endpoint_value) VALUES
  ('CCNc1ncnc2[nH]cc(C(=O)c3cnc(NC4CCC(F)(F)CC4)c(F)c3)c12', '> 8.00'),
  ('Cc1cncc(Nc2ccc(Cc3c[nH]c4ncnc(C5CC5)c34)c(F)n2)c1', '> 7.00'),
  ('CNc1ncnc2[nH]cc(C(=O)c3cnc(NC4CCC(F)(F)CC4)c(F)c3)c12', '> 8.00'),
  ('COc1ccc(Nc2ccc(C(=O)c3c[nH]c4ncnc(C5CC5)c34)c(F)n2)cn1', '> 8.00'),
  ('O=C(c1ccc(Nc2ccc(C3CC3)nc2)nc1F)c1c[nH]c2ncnc(C3CC3)c12', '> 8.00');

Which pIC50 is reported with BCR-NTRK3 BaF3 cells (Homo sapiens, UniProt Q16288) for this entry: "COc1ccc(Nc2ncc(Cc3c[nH]c4ncc(C)cc34)cn2)cn1" ?
> 7.00

And the next one, "CCCNc1ncnc2[nH]cc(C(=O)c3ccc(Nc4ccc(CC)nc4)nc3F)c12" ?
> 8.00

And the next one, "CNc1ncnc2[nH]cc(C(=O)c3ccc(Nc4ccc(C5CC5)nc4)nc3F)c12" ?
> 8.00

----------
target: Fms kinase (Homo sapiens)
// values below are reported IC50

INSERT INTO measurements (smiles_data, endpoint_value) VALUES
  ('CCc1ccc(Nc2ccc(C(=O)c3c[nH]c4ncnc(NC5CC5)c34)c(F)n2)cn1', '< 100 nM'),
  ('CCOc1ncnc2[nH]cc(Cc3ccc(Nc4ccc(C)nc4)nc3F)c12', '< 10 nM'),
  ('CCc1ccc(Nc2ccc(C(=O)c3c[nH]c4ncnc(Nc5ccc(C)nc5)c34)c(F)n2)cn1', '< 1000 nM');

Let us examine a further case.
Which IC50 is reported with Fms kinase (Homo sapiens) for this entry: "CCc1ccc(Nc2ccc(C(=O)c3c[nH]c4ncnc(NC)c34)c(F)n2)cn1" ?
< 10 nM

----------
// values below are reported pIC50
Molecular target: BCR-FMS BaF3 cells (Homo sapiens, UniProt P07333)
Construct: fused on or other part: P11274 (Breakpoint cluster region protein)
Sequence (P07333 582-910): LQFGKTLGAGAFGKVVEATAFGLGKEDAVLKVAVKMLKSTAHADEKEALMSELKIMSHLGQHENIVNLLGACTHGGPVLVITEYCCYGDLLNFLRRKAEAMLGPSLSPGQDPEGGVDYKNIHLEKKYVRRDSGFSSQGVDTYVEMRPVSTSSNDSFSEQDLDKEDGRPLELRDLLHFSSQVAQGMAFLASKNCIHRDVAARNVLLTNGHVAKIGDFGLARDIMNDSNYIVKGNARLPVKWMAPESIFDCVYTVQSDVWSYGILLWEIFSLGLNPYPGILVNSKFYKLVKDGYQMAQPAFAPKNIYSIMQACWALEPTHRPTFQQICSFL
Test: BaF3 BCR-FMS cell proliferation assay (ATPlite)
Conditions: read-out: Inhibition of Cell Proliferation IC50, BCR/BaF3 Fms
pIC50: −log10 of the molar value.

INSERT INTO assay_data (compound, endpoint_value) VALUES
  ('CCn1cc(Nc2ccc(Cc3c[nH]c4ncnc(OCCOC)c34)c(F)n2)cn1 [Compound P-4014]', '> 7.00'),
  ('CCNc1ncnc2[nH]cc(C(=O)c3ccc(Nc4ccc(OC)nc4)nc3F)c12 [Compound P-4081]', '> 8.00'),
  ('Fc1nc(NC2CCC(F)(F)CC2)ccc1Cc1c[nH]c2ncc(Cl)cc12 [Compound P-3013]', '> 7.00'),
  ('CCn1cc(Nc2ccc(Cc3c[nH]c4ncnc(OC)c34)c(F)n2)cn1 [Compound P-4011]', '> 8.00');

Endpoint output: pIC50 of O=C(c1ccc(Nc2ccc(C3CC3)nc2)nc1F)c1c[nH]c2ncccc12 [Compound P-3052] . Value?
> 7.00

And the next one, COc1ccc(Nc2ncc(Cc3c[nH]c4ncc(C)cc34)cn2)cc1 [Compound P-3021] ?
> 8.00

And the next one, O=C(c1ccc(NC2CCC(F)(F)CC2)nc1Cl)c1c[nH]c2ncnc(NCC(F)(F)F)c12 [Compound P-4057] ?
> 6.00

And the next one, Cc1cnc2[nH]cc(Cc3cnc(Nc4cc(C(F)(F)F)n[nH]4)nc3)c2c1 [Compound P-3037] ?
< 6.00

Where do the numbers come from? From patent US8901118B2.
